Taken from patent US20160158377A1.

tested system: Bcl-xL (Homo sapiens)
procedure summary: TR-FRET Bcl-xL binding assay (competition with probe F-Bak)
experimental parameters: without human serum, read-out: Bcl-xL Binding Ki
Description: For the assay, test compounds were serially diluted in DMSO starting at 50 μM (2× starting concentration; 10% DMSO) and 10 μL transferred into a 384-well plate. […] The samples were then mixed on a shaker for 1 minute and incubated for an additional 2 hours at room temperature. […] Fluorescence was measured on the Envision (Perkin Elmer) using a 340/35 nm excitation filter and 520/525 (F-Bak) and 495/510 nm (Tb-labeled anti-his antibody) emission filters. […]
measurement kind: Ki (pM)

Field: example entries. Status: answers known.
{"molecule": "Cc1c(-c2ccc(N3CCc4cccc(C(=O)Nc5nc6ccccc6s5)c4C3)nc2C(=O)O)cnn1CC12CC3(C)CC(C)(CC(CCCN)(C3)C1)C2 [Compound W3.42]", "tested system": "Bcl-xL (Homo sapiens)", "measurement unit": "pM", "Ki": 150}
{"molecule": "CNCCOC12CC3(C)CC(C)(CC(Cn4ncc(-c5ccc(-c6ccc7[nH]nc(C(=O)Nc8nc9ccccc9s8)c7c6)nc5C(=O)O)c4C)(C3)C1)C2 [Compound W3.33]", "tested system": "Bcl-xL (Homo sapiens)", "measurement unit": "pM", "Ki": 44}
{"molecule": "Cc1c(-c2ccc(N3CCc4cccc(C(=O)Nc5nc6ccccc6s5)c4C3)nc2C(=O)O)cnn1CC12CC3(C)CC(C)(C1)CC(NC(=O)CN)(C3)C2 [Compound W3.40]", "tested system": "Bcl-xL (Homo sapiens)", "measurement unit": "pM", "Ki": 24}

a: CNCCOC12CC3(C)CC(C)(CC(Cn4ncc(-c5ccc(N6CCc7c(N)ccc(C(=O)Nc8nc9ccccc9s8)c7C6)nc5C(=O)O)c4C)(C3)C1)C2 [Compound W3.24]
b: CNCCOC12CC3(C)CC(C)(CC(Cn4ncc(-c5ccc(-c6cnc7[nH]cc(C(=O)Nc8nc9ccccc9s8)c7c6)nc5C(=O)O)c4C)(C3)C1)C2 [Compound W3.35]
Q: Endpoint returns the identifier whose Ki is numerically larger, either a or b . Indicate your choice by writing its label.
Ans: a
(a: 794 pM, b: 22 pM)

###

tested system: Bcl-xL (Homo sapiens)
procedure summary: TR-FRET Bcl-xL binding assay (competition with probe F-Bak)
experimental parameters: without human serum, read-out: Bcl-xL Binding Ki
measurement kind: Ki (nM)

P: CNCC#Cc1cc2c(c(C(=O)Nc3nc4ccccc4s3)c1)CN(c1ccc(-c3cnn(CC45CC6(C)CC(C)(C4)CC(OCCOC)(C6)C5)c3C)c(C(=O)O)n1)CC2
Q: COCCOC12CC3(C)CC(C)(CC(Cn4ncc(-c5ccc(N6CCc7cc(N8CCC(N)C8)cc(C(=O)Nc8nc9ccccc9s8)c7C6)nc5C(=O)O)c4C)(C3)C1)C2 (stereo not shown)
Q: Endpoint returns the identifier whose Ki is numerically larger, either P or Q . Indicate your choice by writing its label.
Ans: Q

###

tested system: Bcl-xL (Homo sapiens)
procedure summary: TR-FRET Bcl-xL binding assay (competition with probe F-Bak)
experimental parameters: in the presence of 1% human serum (HS), read-out: Bcl-xL Binding Ki (nM, 1% HS)
measurement kind: Ki (nM)

{"molecule": "CNCCOC12CC3(C)CC(C)(CC(Cn4ncc(-c5ccc(N6CCc7c(N)ccc(C(=O)Nc8nc9ccccc9s8)c7C6)nc5C(=O)O)c4C)(C3)C1)C2 [Compound W3.24]", "Ki (nM)": 8.14}

A: COCCNCCOC12CC3(C)CC(C)(CC(Cn4ncc(-c5ccc(-c6ccc7c(c6)N(C(=O)Nc6nc8ccccc8s6)CCC7)nc5C(=O)O)c4C)(C3)C1)C2 [Compound W3.14]
B: CNCCOC12CC3(C)CC(C)(CC(Cn4ncc(-c5ccc(-c6ccc7c(c6)N(C(=O)Nc6nc8ccccc8s6)CCO7)nc5C(=O)O)c4C)(C3)C1)C2 [Compound W3.02]
C: CNCCOC12CC3(C)CC(C)(CC(Cn4ncc(-c5ccc(N6CCc7cc(OC)cc(C(=O)Nc8nc9ccccc9s8)c7C6)nc5C(=O)O)c4C)(C3)C1)C2 [Compound W3.22]
D: Cc1c(-c2ccc(-c3cc4cccc(C(=O)Nc5nc6ccccc6s5)c4[nH]3)nc2C(=O)O)cnn1CC12CC3(C)CC(C)(C1)CC(OCCN)(C3)C2 [Compound W3.28]
E: CNCCOC12CC3(C)CC(C)(CC(Cn4ncc(-c5ccc(-c6ccc7[nH]nc(C(=O)Nc8nc9ccccc9s8)c7c6)nc5C(=O)O)c4C)(C3)C1)C2 [Compound W3.33]
Q: Could you please order the items by Ki, going from the lowest number to the highest? In your reply, arrange the labels in the requested order.
Ans: A, B, C, D, E

a: CNC(=O)CCNCCOC12CC3(C)CC(C)(CC(Cn4ncc(-c5ccc(N6CCc7cccc(C(=O)Nc8nc9ccccc9s8)c7C6)nc5C(=O)O)c4C)(C3)C1)C2 [Compound W3.39]
b: CNCCN(C)c1cc2c(c(C(=O)Nc3nc4ccccc4s3)c1)CN(c1ccc(-c3cnn(CC45CC6(C)CC(C)(C4)CC(OCCOC)(C6)C5)c3C)c(C(=O)O)n1)CC2 [Compound W3.21]
Q: Endpoint returns the identifier whose Ki is numerically larger, either a or b . Indicate your choice by writing its label.
Ans: a
(a: 0.44 nM, b: 0.14 nM)

a: Cc1c(-c2ccc(-c3ccc4cccc(C(=O)Nc5nc6ccccc6s5)c4c3)nc2C(=O)O)cnn1CC12CC3(C)CC(C)(C1)CC(OCCNCCCO)(C3)C2 [Compound W3.37]
b: CNCCOC12CC3(C)CC(C)(CC(Cn4ncc(-c5ccc(-c6ccc7[nH]cc(C(=O)Nc8nc9ccccc9s8)c7c6)nc5C(=O)O)c4C)(C3)C1)C2 [Compound W3.34]
Q: Which value of Ki is smaller, the one for a or the one for b ? Indicate your choice by writing its label.
Ans: b
(b: 0.27 nM, a: 0.58 nM)

###

tested system: Bcl-xL (Homo sapiens)
procedure summary: TR-FRET Bcl-xL binding assay (competition with probe F-Bak)
experimental parameters: in the presence of 1% human serum (HS), read-out: Bcl-xL Binding Ki (nM, 1% HS)
measurement kind: Ki (nM)

{"given smiles": "Cc1c(-c2ccc(N3CCc4cccc(C(=O)Nc5nc6ccccc6s5)c4C3)nc2C(=O)O)cnn1CC12CC3(C)CC(C)(C1)CC(OCCNC1CN(S(C)(=O)=O)C1)(C3)C2", "Ki [nM]": 0.684}

a: Cc1c(-c2ccc(N3CCc4cccc(C(=O)Nc5nc6ccccc6s5)c4C3)nc2C(=O)O)cnn1CC12CC3(C)CC(C)(C1)CC(OCCNC1COC1)(C3)C2
b: CNCCOC12CC3(C)CC(C)(CC(Cn4ncc(-c5ccc(-c6ccc7c(c6)N(C(=O)Nc6nc8ccccc8s6)CCN7C)nc5C(=O)O)c4C)(C3)C1)C2
Q: Which value of Ki is smaller, the one for a or the one for b ? Indicate your choice by writing its label.
Ans: b

###

Quick reference for pKi among some molecules
tested system: Bcl-xL (Homo sapiens, UniProt Q07817)
Sequence (Q07817 whole entry): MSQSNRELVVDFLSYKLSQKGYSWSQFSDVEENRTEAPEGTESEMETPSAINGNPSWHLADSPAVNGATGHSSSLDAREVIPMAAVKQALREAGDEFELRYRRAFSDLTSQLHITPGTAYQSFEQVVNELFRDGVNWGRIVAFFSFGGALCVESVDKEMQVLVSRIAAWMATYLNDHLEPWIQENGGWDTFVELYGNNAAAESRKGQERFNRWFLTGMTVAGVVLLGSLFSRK
procedure summary: TR-FRET Bcl-xL binding assay (competition with probe F-Bak)
experimental parameters: without human serum, read-out: Bcl-xL Binding Ki
pKi: −log10 of the molar value.

Field: example entries. Status: answers known.
{"molecule": "Cc1c(-c2ccc(N3CCn4cnc(C(=O)Nc5nc6ccccc6s5)c4C3)nc2C(=O)O)cnn1CC12CC3(C)CC(C)(C1)CC(OCCN)(C3)C2 [Compound W3.04]", "reported": "> 12.00"}
{"molecule": "CNCCOC12CC3(C)CC(C)(CC(Cn4ncc(-c5ccc(-c6ccc7cncc(C(=O)Nc8nc9ccccc9s8)c7c6)nc5C(=O)O)c4C)(C3)C1)C2 [Compound W3.26]", "reported": "> 10.70"}

Continue with the next molecule.
Q: Output measured pKi for this item: COCCNCCOC12CC3(C)CC(C)(CC(Cn4ncc(-c5ccc(-c6ccc7cccc(C(=O)Nc8nc9ccccc9s8)c7c6)nc5C(=O)O)c4C)(C3)C1)C2 [Compound W3.15]
Ans: > 12.00

###

tested system: Bcl-xL (Homo sapiens)
procedure summary: TR-FRET Bcl-xL binding assay (competition with probe F-Bak)
experimental parameters: without human serum, read-out: Bcl-xL Binding Ki
measurement kind: Ki

{"given smiles": "Cc1c(-c2ccc(-c3cnc4cccc(C(=O)Nc5nc6ccccc6s5)c4c3)nc2C(=O)O)cnn1CC12CC3(C)CC(C)(C1)CC(OCCN)(C3)C2", "Ki": "< 10 pM"}

Q: Output measured Ki for this item: CNCCOC12CC3(C)CC(C)(CC(Cn4ncc(-c5ccc(N6CCc7c(OC)ccc(C(=O)Nc8nc9ccccc9s8)c7C6)nc5C(=O)O)c4C)(C3)C1)C2
Ans: < 1 pM

Q: Output measured Ki for this item: Cc1c(-c2ccc(N3CCc4cccc(C(=O)Nc5nc6ccccc6s5)c4C3)nc2C(=O)O)cnn1CC12CC3(C)CC(C)(C1)CC(OCCNCCC(N)=O)(C3)C2
Ans: < 10 pM

Q: Output measured Ki for this item: CNCCOC12CC3(C)CC(C)(CC(Cn4ncc(-c5ccc(-c6ccc7cccc(C(=O)Nc8nc9ncccc9s8)c7c6)nc5C(=O)O)c4C)(C3)C1)C2
Ans: < 1 pM

Q: Output measured Ki for this item: CNCCOC12CC3(C)CC(C)(CC(Cn4ncc(-c5ccc(N6CCc7cc(OC)cc(C(=O)Nc8nc9ccccc9s8)c7C6)nc5C(=O)O)c4C)(C3)C1)C2
Ans: < 10 pM

Q: Output measured Ki for this item: CNCCOC12CC3(C)CC(C)(CC(Cn4ncc(-c5ccc(-c6ccc7c(c6)N(C(=O)Nc6nc8ccccc8s6)CCN7C)nc5C(=O)O)c4C)(C3)C1)C2
Ans: < 1 pM
